System: Aβ1-40
ASSAY: Aβ1-40 content in conditioned medium of primary cortico-hippocampal neuron cultures from Tg2576 mice (ELISA; primary and secondary dose-response screening)
Assay type: cell-based, mouse
TEST PARAMETERS: Mus musculus, Neuron, 24 h, primary screening, drug 100 μM, Tg2576 neuron cultures; table sorted by Aβ1-42; read-out: Ab1-40 (% of ctl)
Counter-ions that a name gives are not always drawn.
Consider the following compounds and their measured activity at 100 µM readings.

{"COMPOUND": "N=C(N)NC(=O)c1nc(Cl)c(N)nc1N [Amiloride Hydrochloride]", "activity at 100 µM (%)": 77.5}
{"COMPOUND": "CCC(=O)O[C@@H](O[P@](=O)(CCCCc1ccccc1)CC(=O)N1C[C@H](C2CCCCC2)C[C@H]1C(=O)O)C(C)C [Fosinopril Sodium]", "activity at 100 µM (%)": 94.7}
{"COMPOUND": "O=c1cc(-c2ccccc2)oc2cc(O)cc(O)c12", "activity at 100 µM (%)": 71.6}
{"COMPOUND": "CCOC(=O)NNc1nncc2ccccc12 [Todralazine Hydrochloride]", "activity at 100 µM (%)": 105}
{"COMPOUND": "O=C1c2ccccc2C(=O)C1c1ccccc1", "activity at 100 µM (%)": 104}
{"COMPOUND": "CCOC(=O)[C@H](CCc1ccccc1)N[C@@H](C)C(=O)N1Cc2ccccc2C[C@H]1C(=O)O [Quinapril Hydrochloride]", "activity at 100 µM (%)": 119}
{"COMPOUND": "C[C@@H]1CCC[C@H](C)N1NC(=O)c1ccc(Cl)c(S(N)(=O)=O)c1 [Clopamide]", "activity at 100 µM (%)": 92}
{"COMPOUND": "NS(=O)(=O)c1cc2c(cc1Cl)NC(C(Cl)Cl)NS2(=O)=O (stereo not shown) [Trichlormethiazide]", "activity at 100 µM (%)": 89.3}
{"COMPOUND": "CCC(C(N)=O)c1ccccc1 (stereo not shown) [Fenbutyramide]", "activity at 100 µM (%)": 91.6}
{"COMPOUND": "NC[C@H]1CC[C@H](C(=O)O)CC1", "activity at 100 µM (%)": 84.9}

###

Tested on: primary cortico-hippocampal neuron cultures
ASSAY: lactate dehydrogenase (LDH) activity assay in parallel neuron cultures
TEST PARAMETERS: primary screening; table sorted by Aβ1-42
Structures can show the parent of a compound that is named as a salt.

{"MOLECULE": "CC(C)NCC(O)c1ccc2ccccc2c1 (centres unmarked) [Pronetalol Hydrochloride]", "LDH (% of ctl)": "108.9 % of ctl"}
{"MOLECULE": "CC1=NS(=O)(=O)c2cc(Cl)ccc2N1 [Diazoxide]", "LDH (% of ctl)": "112.0 % of ctl"}
{"MOLECULE": "CCC(C)(C)C(=O)O[C@H]1C[C@@H](C)C=C2C=C[C@H](C)[C@H](CC[C@@H]3C[C@@H](O)CC(=O)O3)[C@H]21 [Simvastatin]", "LDH (% of ctl)": "129.9 % of ctl"}
{"MOLECULE": "C[C@]12CC[C@H]3[C@@H](CC[C@]4(O)C[C@@H](O)CC[C@]34C=O)[C@@]1(O)CC[C@@H]2C1=CC(=O)OC1 [Strophanthidin]", "LDH (% of ctl)": "119.4 % of ctl"}
{"MOLECULE": "C=CCSCC1Nc2cc(Cl)c(S(N)(=O)=O)cc2S(=O)(=O)N1 (centres unmarked) [Althiazide]", "LDH (% of ctl)": "109.0 % of ctl"}
{"MOLECULE": "CCOC(=O)C1=C(C)NC(C)=C(C(=O)OC)C1c1cccc([N+](=O)[O-])c1 (centres unmarked) [Nitrendipine]", "LDH (% of ctl)": "94.3 % of ctl"}
{"MOLECULE": "COc1ccc([C@@H]2Sc3ccccc3N(CCN(C)C)C(=O)[C@@H]2OC(C)=O)cc1 [Diltiazem Hydrochloride]", "LDH (% of ctl)": "96.1 % of ctl"}
{"MOLECULE": "NS(=O)(=O)c1cc2c(cc1Cl)NCNS2(=O)=O [Hydrochlorothiazide]", "LDH (% of ctl)": "281.1 % of ctl"}

Data provenance is patent US20100029654A1.
